Below: a set of entries, each annotated with reported Tm.
- experimental-protocol: melting temperature; fluorescence melt of hairpins on a sequencing array, two-state fit, raised by 9.35 °C to match UV melts
- measurement-context: sodium 0.088 M
Respond with the bare value in °C.

Some sequences with recorded Tm:
GCTTTGCGAAAGCCATGC ((.(.((....)).).))
31.3
GAGTACGGAAACGCACTC ((((.((....)).))))
45.3
GATCCAACGATGGATC ((((((....))))))
48.1
GCATGCGGAAACGCATAC (.(((((....))))).)
44
GCCGGCGAAAGCCGTGGC ((((((....)))..)))
58.4
GGTTGGGGAAACCTAACC ((((.((....)).))))
48
GATGATGGAAACATTATC (((.(((....))).)))
35.5
GGAGGCGAAAGCCAATCC ((((((....)))..)))
33.6
ATACAGAAATGTAT (((((....)))))
25.3
GTAACAGGAAACTGTTAC (((((((....)))))))
55.4

// Input: GAGTTAGGAAACTAGCTC (((.(((....))).))) . Output its Tm only.
40.4

Tell me Tm reported for GATCGCGGAAACGCAATC (((.(((....))).)))
41.3

Given the sequence GAAAGTGGAAACGCTTTC (((((.(....).))))) , write its reported Tm.
44.2

Let me know recorded Tm for GCGTAGGAACGC ((((....)))) , thanks.
49.2

###

- experimental-protocol: folding enthalpy; higher = less favourable; fluorescence melt of hairpins on a sequencing array, two-state fit
- measurement-context: sodium 0.088 M
Grouping key: folding enthalpy. Bins: Low: < -40 kcal/mol; Mid: ≥ -40 kcal/mol and < -20 kcal/mol; High: ≥ -20 kcal/mol

GTAGACGGAAACGTTTGC (.(.(((....))).).)
High
GACACCGGAAACGGCGTC (((.(((....))).)))
Low
GATCTGCTTACAGATC ((((((....))))))
Low
GACCGCCGAAAGGCTGTC (((.(((....))).)))
Mid
GCACCGGGAAACCAGCGC ((.(.((....)).).))
Mid
GCGTTTCAACGC ((((....))))
Mid

Where would GATCCTAGGCAGGATC ((((((....)))))) land among the classes by reported folding enthalpy?
Mid

# classify by folding enthalpy band: GATCCCTGGAGGGATC ((((((....))))))
Mid

Given GGACTCGCGAAAGCGTCC (((..(((....)))))) , name the class its folding enthalpy places it in.
High

Class? Entry: GGTTACGAAAGTAGCACC ((((((....)))..)))
High

Hi, small favor: classify GATGCGGCGAAAGCCATC (((..(((....)))))) by its folding enthalpy when you get a moment.
High

###

- experimental-protocol: folding enthalpy; higher = less favourable; fluorescence melt of hairpins on a sequencing array, two-state fit
- measurement-context: sodium 0.088 M
property-label: folding enthalpy (kcal/mol)
Provide the reading as a plain figure in kcal/mol.

Use the examples below as a reference point.
GACCTCGCGAAAGCGGTC (((..(((....))))))
-12.3
GGTTGAGGAAACTCGACC (((.(((....))).)))
-44.2
GGGAGAGGAAACCCTCCC (((((.(....).)))))
-28.6
GCGGGCGAAAGCCGTCGC ((((((....)))..)))
-17.3
GGATGGGGAAACCCGTCC (((.(((....))).)))
-48.4
GAAAGCGAAAGCTTGTTC ((((((....)))..)))
-12.5

Entry GCTTAGCCGAAAGGCAGC (((..(((....)))))) needs its folding enthalpy filled in; supply it.
-16.4

Consider the sequence GTGGCTGGAAACGGCTAC ((.((.(....).)).)) and give its recorded folding enthalpy.
-24.2

Look up and report measured folding enthalpy for this entry: GTACTTGGAAACAAGTGC (.(((((....))))).)
-21.1

Tell me measured folding enthalpy for GGTTCCCGAAAGGGCACC (((.(((....))).))) please.
-26.2

Answer with reported folding enthalpy of GGATCCGAAAGGACTCC ((((((....))).)))
-23.9

Return folding enthalpy for the following sequence: GTGGGTGGAAACACTCGC (.(.(((....))).).)
-24.7

Please look at this sequence and report its folding enthalpy: GGGGGCGAAAGCCGTCCC ((((((....)))..)))
-13.7

Could you please provide reported folding enthalpy for GTACGCGAAAGCGCGTAC ((((((....)))..))) ? Thanks!
-25.7

Given GGCAACGCGAAAGCGGCC (((..(((....)))))) , respond with its folding enthalpy.
-19.8

Please report the measured folding enthalpy for GTAGCTGGAAACAGTTGC (.(.(((....))).).)
-14.5

Note down folding enthalpy recorded for GAGGAAGGAAACTTCTTC ((.((((....)))).))
-16.7

Please report folding enthalpy for the following sequence: GATCAAAGTGTTGATC ((((((....))))))
-29.6

Give the reported folding enthalpy for this sequence. GTCCGTGGAAACACGAAC ((.((((....)))).))
-21

For the sequence GACTGCACGAAAGTGGTC (((..(((....)))))) , give its measured folding enthalpy value.
-13.9

Using known records, supply folding enthalpy for GAAAATGGAAACATTTCC (.(((((....))))).)
-17

Could you please provide reported folding enthalpy for GCCACTGGAAACAGCGGC (((.(((....))).))) ? Thanks!
-42.6

Return folding enthalpy (reported value) for this sequence: GCGCAAGGAAACCTGCAC (.(((.(....).))).)
-17

###

Catalogue of sequences with associated Tm
- experimental-protocol: melting temperature; fluorescence melt of hairpins on a sequencing array, two-state fit, raised by 9.35 °C to match UV melts
- measurement-context: sodium 0.088 M
Report as: number unit

Example entries begin here.
GATCGACGGATCGATC ((((((....))))))
51.1 °C
GGACCTGGAAACAAGTCC ((((.((....)).))))
38.7 °C
GTCCGCCGAAAGGCTGAC (((.(((....))).)))
57.3 °C
GATCGCCCTGCGATC ((((((...))))))
67.8 °C
GTAGTCGAAAGACATTAC ((((((....)))..)))
23.5 °C
GGCGTAGCGAAAGCTGCC (((..(((....))))))
55.3 °C
GGGTTTGGAAACAAGCCC (((.(((....))).)))
52.7 °C
GATCGTGTCTACGATC ((((((....))))))
59.8 °C

Indicate its recorded Tm; the sequence in question is GGAGTCGGAAACGGCTTC (.((.((....)).)).)
44.3 °C

Report measured Tm; entry is GGTAATACGAAAGTAACC (((..(((....))))))
22.7 °C

Tell us which Tm value is on record for GTGCGTGGAAACACGTAC ((.((((....)))).))
56.1 °C

Output Tm of GTCATCGAAAGATTTGAC ((((((....)))..)))
29.4 °C

Tell us which Tm value is on record for GGATGTCGAAAGACTCC (((.(((....))))))
51.8 °C

###

- experimental-protocol: melting temperature; fluorescence melt of hairpins on a sequencing array, two-state fit, raised by 9.35 °C to match UV melts
- measurement-context: sodium 0.088 M
property-label: Tm

GATCGAATAGTCGATC ((((((....))))))
48.8 °C
CGACCCGGAAACGGATCG (((.(((....))).)))
48.8 °C
GTCCTAGGAAACTGGGAC ((((.((....)).))))
49.4 °C
GATCCTCTGCAGGATC ((((((....))))))
50.7 °C
GCCTGTCGAAAGACCGGC (((.(((....))).)))
55.8 °C
GCTTGAGCGAAAGCTAGC (((..(((....))))))
47.8 °C
GCAGCGCGAAAGCGAAGC ((..(((....)))..))
57.5 °C

Next, consider the following sequence.
Report measured Tm; entry is GCGATTATTCGC ((((....))))
52.4 °C

###

- experimental-protocol: folding enthalpy; higher = less favourable; fluorescence melt of hairpins on a sequencing array, two-state fit
- measurement-context: sodium 0.088 M
property-label: folding enthalpy (kcal/mol)
The reply should be a number in kcal/mol, with the unit left off.

GCGACGGTTCGC ((((....))))
-20.1
GGTTTAGAAATAAACC ((((((....))))))
-29.2
GCCCCTGGAAACAGGAGC ((.((((....)))).))
-30.6

Consider now this further sequence.
Note down folding enthalpy recorded for GATTGACGAAAGTCGATC (((.(((....))).)))
-29.6
